assay: recombinant UMI read abundance after kanamycin selection (control-corrected) (log10(CPM+1)); higher = more efficient recombination; extreme values may be limits of the assay; sequences stand for … in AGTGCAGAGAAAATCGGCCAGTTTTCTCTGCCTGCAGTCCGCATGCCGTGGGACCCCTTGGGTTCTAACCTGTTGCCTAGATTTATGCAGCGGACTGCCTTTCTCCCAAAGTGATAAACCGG…AGGTTGGTTTCACT; site = the 11-nt donor;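 further: IS621 bridge recombinase in Escherichia coli cells against a fixed T5 target plasmid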
Could you please report measured recombinant UMI read abundance (log10) for the items listed next?
Answers are plain numbers.

Sample answers from the record:
Form: sequence = CGTAAGCCATGGACCGGTTTTCCCGGTAATCCGTATTTGTT (site CGGAATCCTAA) ; recombinant UMI read abundance (log10) = 0

Form: sequence = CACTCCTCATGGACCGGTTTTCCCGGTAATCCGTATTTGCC (site CTCTCCTCTGG) ; recombinant UMI read abundance (log10) = 2.29

Form: sequence = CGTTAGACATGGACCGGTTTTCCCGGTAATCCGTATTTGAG (site CGTCAGACTCT) ; recombinant UMI read abundance (log10) = 0.944

Form: sequence = GTATGAACATGGACCGGTTTTCCCGGTAATCCGTATTTGTA (site GTATGGACTTA) ; recombinant UMI read abundance (log10) = 0.255

Form: sequence = CGTTTAGCATGGACCGGTTTTCCCGGTAATCCGTATTTGCT (site CGTTTAGCTAG) ; recombinant UMI read abundance (log10) = 0

Please supply recombinant UMI read abundance (log10) for each of the following items, keeping them in order.
1. GGATAAACATGGACCGGTTTTCCCGGTAATCCGTATTTGCC (site GGATATACTGG)
2. CCACGAACATGGACCGGTTTTCCCGGTAATCCGTATTTGTC (site ACACGAACTGA)
3. GCGAGGCCATGGACCGGTTTTCCCGGTAATCCGTATTTGGG (site GCGATGCCTCC)
4. GTTCGAGCATGGACCGGTTTTCCCGGTAATCCGTATTTGAA (site GTTCGAGCTTA)

[0, 0, 0.0249, 0.307]

###

assay: recombinant UMI read abundance after kanamycin selection (control-corrected) (log10(CPM+1)); higher = more efficient recombination; extreme values may be limits of the assay; sequences stand for … in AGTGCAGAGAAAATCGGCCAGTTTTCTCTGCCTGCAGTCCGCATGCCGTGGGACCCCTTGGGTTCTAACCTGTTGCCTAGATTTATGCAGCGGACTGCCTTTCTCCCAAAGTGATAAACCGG…AGGTTGGTTTCACT; site = the 11-nt donor
Could you label it y if measured recombinant UMI read abundance (log10) is 0.6 or higher, and n otherwise?

Solved entries (count: 3):
Could you verify whether the entry CATTGGACATGGACCGGTTTTCCCGGTAATCCGTATTTGAC (site AATTGGACTGT) shows recombinant UMI read abundance (log10) of no less than 0.6?
n

Could you verify whether the entry CACTTGACATGGACCGGTTTTCCCGGTAATCCGTATTTGCT (site CACTTGACTAG) shows recombinant UMI read abundance (log10) of no less than 0.6?
y

Could you verify whether the entry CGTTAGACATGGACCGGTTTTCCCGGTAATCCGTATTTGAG (site CGTTAGACTCC) shows recombinant UMI read abundance (log10) of no less than 0.6?
n

Now consider the entry below.
Could you verify whether the entry TCATAATCATGGACCGGTTTTCCCGGTAATCCGTATTTGCA (site TCATAATCTTG) shows recombinant UMI read abundance (log10) of no less than 0.6?
y
